System: Pseudomonas aeruginosa
Format: cell-based
Description: To evaluate the potency and spectrum of the compounds, susceptibility testing was performed against up to nine strains of each of the Gram negative pathogens, Escherichia coli, Pseudomonas aeruginosa, Klebsiella pneumoniae and Acinetobacter baumannii. The values in Table 2 are MIC (μg/mL) against strains of E. coli, K. pneumoniae, P. aeruginosa and A. baumanii, including strains which show elevated MICs to Polymyxin. The values in Table 2A are MIC (μg/mL). […]
recorded.endpoint: MIC P. aeruginosa 068 (µg/mL)
Give bare numbers, in µg/mL.

CC(C)CC1CNCC(C(=O)N[C@H](C(=O)N[C@@H](CN)C(=O)N[C@H]2CCNC(=O)[C@H]([C@@H](C)O)NC(=O)[C@H](CCN)NC(=O)[C@H](CCN)NC(=O)[C@H](CC(C)C)NC(=O)[C@@H](Cc3ccc(Br)cc3)NC(=O)[C@H](CCN)NC2=O)C(C)O)C1 (single isomer, unassigned; isomer 1) [Example 11]    8

For the next question, use this compound.
Exercise: Param item = CC(C)C[C@@H]1NC(=O)[C@@H](CC2CCCCC2)NC(=O)[C@H](CCN)NC(=O)[C@@H](NC(=O)[C@H](CCN)NC(=O)[C@@H](NC(=O)C(CCN)c2cccs2)[C@@H](C)O)CCNC(=O)[C@H]([C@@H](C)O)NC(=O)[C@H](CCN)NC(=O)[C@H](CCN)NC1=O (single isomer, unassigned; isomer 2) ; retrieve measured MIC P. aeruginosa 068.
Key: 8

###

Tested on: Pseudomonas aeruginosa
Assay type: cell-based
Bridge positions count the residues as written; N and C are the ends. Square brackets hold non-standard residues; d marks the D form. Peptide text beside a SMILES is read from it. * marks the point of attachment. dCha = N[C@H](CC1CCCCC1)C(=O)O; X20 = NCC(Cc1ccccc1F)C(=O)*; X15 = NCCC(CC1CCCC1)C(=O)*; Dab = NCC[C@H](N)C(=O)O; Dap = NC[C@H](N)C(=O)O
recorded.endpoint: MIC P. aeruginosa 068 (µg/mL)
Answers are plain numbers, in µg/mL.

Sample answers from the record:
CC(C)C[C@@H]1NC(=O)[C@@H](CC2CCCCC2)NC(=O)[C@H](CCN)NC(=O)[C@@H](NC(=O)[C@H](CN)NC(=O)[C@@H](NC(=O)CC(N)C2CCCCC2)C(C)O)CCNC(=O)[C@H]([C@@H](C)O)NC(=O)[C@H](CCN)NC(=O)[C@H](CCN)NC1=O (single isomer, unassigned; isomer 2) [Example 33]    8
CC(C)C[C@@H]1NC(=O)[C@@H](CC2CCCCC2)NC(=O)[C@H](CCN)NC(=O)[C@@H](NC(=O)[C@H](CN)NC(=O)[C@@H](NC(=O)C(CCN)CC2CCCC2)[C@@H](C)O)CCNC(=O)[C@H]([C@@H](C)O)NC(=O)[C@H](CCN)NC(=O)[C@H](CCN)NC1=O (stereo partly drawn) [Example 75] (X15-T[Dap][Dab][Dab][dCha]L[Dab][Dab]T; lactam 3-C)    2

Shifting focus to the compound that follows.
Exercise: MIC P. aeruginosa 068 lookup needed for CC(C)C[C@@H]1NC(=O)[C@@H](CC2CCCCC2)NC(=O)[C@H](CCN)NC(=O)[C@@H](NC(=O)[C@H](CCN)NC(=O)[C@@H](NC(=O)C(CN)Cc2ccccc2F)[C@@H](C)O)CCNC(=O)[C@H]([C@@H](C)O)NC(=O)[C@H](CCN)NC(=O)[C@H](CCN)NC1=O (stereo partly drawn) [Example 62, 3-amino-2-(2-fluorobenzyl) propanoyl] (X20-T[Dab][Dab][Dab][dCha]L[Dab][Dab]T; lactam 3-C) , thanks.
Key: 8

Sourced from patent US12146004B2
